The measurements presented in this section are drawn from PubChem BioAssay.

protocol.text: liver-stage malaria parasite load reduction – cell-based, known kinase inhibitor set, luminescence, hepatoma host viability (AID 624392);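 also: infected cells incubated roughly two days before readout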
condition.notes: Plasmodium liver stage in hepatoma cells, luciferase luminescence, concentration not given here; hits give low values
reported.metric: parasite % of control (%)

compound=NC(=O)c1sc(-n2cnc3ccccc32)cc1OCc1ccccc1Br observed_measurement=256
compound=NC(=O)Cc1ccccc1Oc1nccc(-c2c(-c3ccc(F)cc3)ncn2C2CCNCC2)n1 observed_measurement=160
compound=O=C(Nc1ccc(-c2csc(Nc3ccc(Cl)cc3)n2)cc1)c1ccccc1 observed_measurement=110
compound=COc1cc(C(=O)N2CCC(N3CCCCC3)CC2)ccc1Nc1nnc(Cl)c(Nc2ccccc2S(C)(=O)=O)n1 observed_measurement=118
compound=Cc1ccc(C(=O)Nc2cccc(C(F)(F)F)c2)cc1NC(=O)c1c[nH]c2cc(C(F)(F)F)ccc2c1=O observed_measurement=25.1
compound=CCN1CCN(Cc2ccc(NC(=O)c3ccc(C)c(NC(=O)c4ccc5n[nH]nc5c4)c3)cc2C(F)(F)F)CC1 observed_measurement=112
compound="CC(C)CC(CO)Nc1nc(Nc2cccc(Cl)c2)c2ncn(C(C)C)c2n1 (centres undefined)" observed_measurement=148
compound=COc1cc(NC(=O)c2ccnnc2)cc(C(=O)Nc2cccc(C(F)(F)F)c2)c1 observed_measurement=97.5
compound=CC(C)n1cnc2c(N(C)c3cccc(Cl)c3)nc(N(CCO)CCO)nc21 observed_measurement=100
compound=Cc1ccc(C(=O)Nc2cccc(C(F)(F)F)c2)cc1NC(=O)c1cnnc2ccccc12 observed_measurement=44.2
compound="CC(C)C(CO)Nc1nc(Nc2ccc(S(=O)(=O)O)c(N)c2)c2ncn(C(C)C)c2n1 (centres undefined)" observed_measurement=105
compound=CCN1CCN(Cc2ccc(NC(=O)c3cc(NC(=O)c4cc(-c5ccc(OC)cc5)n[nH]4)cc(OC)c3)cc2C(F)(F)F)CC1 observed_measurement=132
compound=CCN1CCN(Cc2ccc(NC(=O)c3ccc(C)c(NC(=O)c4nccnc4N)c3)cc2C(F)(F)F)CC1 observed_measurement=155
compound=COc1cc(NC(=O)c2csc(N)n2)cc(C(=O)Nc2cccc(C(F)(F)F)c2)c1 observed_measurement=39.6
compound="C=CC(=O)Nc1ccc(Nc2nc(NC3CCC(N(C)C)CC3)nc3c2ncn3C(C)C)cc1 (centres undefined)" observed_measurement=6.69
compound=C=CC(=O)Nc1cccc(N2C(=O)N(c3cc(OC)cc(OC)c3)Cc3cnc(NCCCCN(CC)CC)nc32)c1 observed_measurement=107
compound=O=C(Nc1cccc(-c2csc(Nc3cccc(C(F)(F)F)c3)n2)c1)c1cc([N+](=O)[O-])cc(C(F)(F)F)c1 observed_measurement=79.7
compound=COc1cc(NC(=O)c2cnc(N)s2)cc(C(=O)Nc2cccc(C(F)(F)F)c2)c1 observed_measurement=79
compound=Nc1cc(Nc2ccc(S(N)(=O)=O)cc2)ncn1 observed_measurement=145
